Tested on: SK-MEL-5 melanoma
EXPERIMENT SUMMARY: NCI-60 one-dose screen, 48 h
CONDITION: 10 µM unless noted
About 83,000 compounds went through this panel and 20% of them were active in at least one assay; those are over-represented in the sample as a whole. Activity calls are given as the source filed them. How the source made its calls: active means growth percent below 10; inactive means the rest.
Entry note: the call must match one of True (active), False (inactive)

Study these solved cases before continuing.
# COMPOUND, GROUP LABEL
records = [
    ("CN(C)c1cccc2c(S(=O)(=O)/N=C(\\N)Nc3nc4ccccc4s3)cccc12", "False"),
    ("CCCCN(CCCC)C(=N)c1ccnc2ccccc12", "False"),
    ("C=C(C)[C@@H]1C[C@H](O)Cc2cc(F)ccc2N1", "False"),
    ("O=S(=O)(c1ccc(OCCO)cc1)c1ccc(OCCO)cc1", "False"),
]

In the following, a different compound is considered.
-- ask Hi, do you know how O=[N+]([O-])c1cc(Cl)c2[nH]c3c(Cl)cc([N+](=O)[O-])cc3c2c1 came out in this test?
-- reply True

---

System: CAKI-1 renal
EXPERIMENT SUMMARY: NCI-60 one-dose screen, 48 h (100 = growth as untreated, 0 = no growth, -100 = all killed)
CONDITION: 10 µM unless noted
Compounds without any hit were thinned out: in the full panel of roughly 83,000, 20% have a hit.
Assign growth to each entry below.
Numbers only, in %.

# SMILES STR, ASSAYED TARGET, growth / %
measured = [
    ("Cc1ccc(-c2csc(NC(=O)CCCCl)n2)cc1", "CAKI-1 renal", 91.6),
    ("COc1cc2c(cc1O)CCN1C[C@@H](CC(C)C)[C@@H](O)C[C@@H]21", "CAKI-1 renal", 91.4),
]

We next turn to a different molecule, shown below.
-- ask Fill in: growth of Clc1cc(Cl)c2nc(-c3ccc(-c4ccc(/C=N/NC5=NCCN5)cc4)s3)cn2c1 is ___
-- reply 91.9

---

Test system: NCI-H23 lung
EXPERIMENT SUMMARY: NCI-60 one-dose screen, 48 h
CONDITION: 10 µM unless noted
Procedure: Growth inhibition of the NCI-H23 human Non-Small Cell Lung tumor cell line is measured as a screen for anti-cancer activity. Cells are grown in 96 well plates and exposed to the test compound for 48 hours. Compounds are tested at a single concentration, which is 10^-5 M for most compounds. The reported endpoint is percent growth (GI% or GIPRCNT), where numbers from 0 - 100% represent growth inhibition, and numbers from -100% - 0 represent cell death. […]
The panel holds about 83,000 compounds, 20% with a hit somewhere; the sample as a whole holds those more often. The source made the active and inactive calls. Rule for the calls: active = growth percent below 10; inactive = the rest.
Lab note: assign the record to one of active, inactive

-- ask What did the test return for O=[N+]([O-])c1cc(Cl)c2[nH]c3c(Cl)cc([N+](=O)[O-])cc3c2c1 ?
-- reply active

-- ask Outcome? CN(C)c1oc(C2OC2c2ccccc2)nc1C#N (stereo not given)
-- reply inactive

-- ask Assay outcome for O=C(/C=C\c1cccc([N+](=O)[O-])c1)/C=C/c1cccc([N+](=O)[O-])c1 : what was it?
-- reply inactive

-- ask Dear all, I need the recorded test outcome for Nc1nc(-c2ccccc2)c(CCCOc2ccc(NC(=O)CBr)cc2)c(=O)[nH]1 , thank you.
-- reply inactive

-- ask For COc1ccc(-c2cn(-c3cccc(C(=O)/C=C/c4cc(OC)c(OC)c(OC)c4)c3)c(=O)[nH]2)cc1OC , which call appears in the assay record?
-- reply inactive

-- ask Hi, sorry to bother you, what did the test record for Brc1ccc(-c2[nH]ncc2-c2c[nH]c3ccccc23)cc1 ?
-- reply inactive

-- ask In this assay, the call recorded for Oc1ccc2cc(Br)ccc2c1-c1c(O)ccc2cc(Br)ccc12 was what?
-- reply inactive

-- ask Please indicate how the test categorized COc1ccc(Nc2ncccc2C(=O)NCc2cn(Cc3cccc(Oc4ccccc4)c3)nn2)cc1 .
-- reply inactive

-- ask Name the outcome recorded for C=C(C)[C@@H]1C[C@@H]2Cc3cc(Cl)ccc3N1O2 in the assay.
-- reply inactive

-- ask Recorded test call requested for O=[N+]([O-])c1cnc(Sc2ccncn2)s1
-- reply inactive

-- ask # lookup: test call for Cc1ccc(S(=O)(=O)NCCNc2cc(-c3cn(C(C)(C)C)nc3-c3cccc(O)c3)ccn2)cc1
-- reply inactive

-- ask Identify the outcome logged in this assay for the compound shown: COc1cc(Cn2cc3c(c2)-c2oncc2CC3)cc(OC)c1OC
-- reply inactive

-- ask Test call, this compound: Cc1cc(N/N=C/c2nc(-c3ccccc3)oc2C)c2cc(Br)ccc2n1
-- reply inactive
